Experiment: Solubility in simulated fluids and water
Assay type: physicochemical
Conditions: FaSSIF (fasted-state simulated intestinal fluid), pH 6.35, thermodynamic from solid; FaSSIF, 37° C., 24 h
Structures can show the parent of a compound that is named as a salt.
property.measured: solubility at 24 h (mg/mL)
Kindly answer with a numeric value in mg/mL, unit omitted.

CCOc1ccccc1-c1ccc(N2CCN(C(=O)C3(C(F)(F)F)CCC3)C[C@H]2CC)c(C(=O)N[C@@H]2CN3CCC2CC3)n1 [Pattern D Maleate] | 1.47

Now look at this entry.
(Q) Please give the measured solubility at 24 h for this molecule: CCOc1ccccc1-c1ccc(N2CCN(C(=O)C3(C(F)(F)F)CCC3)C[C@H]2CC)c(C(=O)N[C@@H]2CN3CCC2CC3)n1.O=C(O)/C=C\C(=O)O [Pattern C Maleate]
(A) 1.41

* * *

Assay: Solubility of solid state forms in solvents (gravimetric or solvent addition)
Assay type: physicochemical
Details: cyclohexane, organic solvent or mixture, thermodynamic from solid, cyclohexane, RT; read-out: Solubility
Where a name gives a salt, the structure may show the parent alone.
property.measured: solubility

(Q) Please give the measured solubility for this compound: CCOc1ccccc1-c1ccc(N2CCN(C(=O)C3(C(F)(F)F)CCC3)C[C@H]2CC)c(C(=O)N[C@@H]2CN3CCC2CC3)n1 [Compound I Maleate]
(A) < 3000 µg/mL

* * *

Assay: Solubility in simulated fluids and water
Assay type: physicochemical
Settings: FaSSIF (fasted-state simulated intestinal fluid), thermodynamic from solid; FaSSIF, 37° C., 1 h
Counter-ions that a name gives are not always drawn.
Reported values of solubility at 1 h for individual entries

CCOc1ccccc1-c1ccc(N2CCN(C(=O)C3(C(F)(F)F)CCC3)C[C@H]2CC)c(C(=O)N[C@@H]2CN3CCC2CC3)n1.O=C(O)/C=C\C(=O)O [Pattern C Maleate] | 1240 µg/mL

Now look at this entry.
(Q) Please give the measured solubility at 1 h for this compound: CCOc1ccccc1-c1ccc(N2CCN(C(=O)C3(C(F)(F)F)CCC3)C[C@H]2CC)c(C(=O)N[C@@H]2CN3CCC2CC3)n1 [Pattern D Maleate]
(A) 1500 µg/mL
